In this section, each of the compounds is paired with its reported pIC50.
target_of_assay: human P2Y12 receptor (Homo sapiens, UniProt Q9H244)
Construct: expressed in transfected cells; host or cells: Chinese Hamster Ovary (CHO) cells
Sequence (Q9H244 whole entry): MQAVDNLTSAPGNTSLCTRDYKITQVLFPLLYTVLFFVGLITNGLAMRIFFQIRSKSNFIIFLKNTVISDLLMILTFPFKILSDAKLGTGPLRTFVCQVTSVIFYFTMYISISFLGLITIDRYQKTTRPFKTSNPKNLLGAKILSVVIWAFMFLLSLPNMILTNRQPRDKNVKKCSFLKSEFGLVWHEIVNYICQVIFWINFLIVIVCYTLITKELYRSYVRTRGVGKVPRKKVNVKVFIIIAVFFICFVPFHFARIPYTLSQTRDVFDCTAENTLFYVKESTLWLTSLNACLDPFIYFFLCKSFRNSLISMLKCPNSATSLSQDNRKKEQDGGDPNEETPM
procedure_details: P2Y12 receptor binding assay
condition_details: CHO cells with recombinant expression of the human P2Y12 receptor; tritium-labeled 2-methyl-S-ADP; 2 hours at room temperature
pIC50: −log10 of the molar value. Where a name gives a salt, the structure may show the parent alone.
outcome_measure: pIC50

compound: CCOC(=O)N1CCN(C(=O)[C@H](CCC(=O)O)NC(=O)c2cc(OC3CCCN(C)C3)nc(-c3ccccc3)n2)CC1 (stereo partly shown) [Example 6, trifluoroacetate salt]
numeric_result: 6.62

compound: CCCCOC(=O)N1CCN(C(=O)[C@H](CCC(=O)OC(C)(C)C)NC(=O)c2cc(OC3CCNCC3)nc(-c3ccccc3)n2)CC1 [Example 38]
numeric_result: 4.89

compound: CCOC(=O)N1CCN(C(=O)[C@H](CCC(=O)O)NC(=O)c2cc(OCCOCCOC)nc(-c3ccccc3)n2)CC1 [Example 1]
numeric_result: 6.97

compound: CCCCOC(=O)N1CCN(C(=O)[C@H](CCC(=O)OC(C)(C)C)NC(=O)c2cc(O[C@@H]3CCOC3)nc(-c3ccccc3)n2)CC1 [Example 36]
numeric_result: 6.35
